Target: hCaSR (Calcium sensing receptor) in stably transfected HEK293 cells (Homo sapiens)
Sequence (P41180 20-1078): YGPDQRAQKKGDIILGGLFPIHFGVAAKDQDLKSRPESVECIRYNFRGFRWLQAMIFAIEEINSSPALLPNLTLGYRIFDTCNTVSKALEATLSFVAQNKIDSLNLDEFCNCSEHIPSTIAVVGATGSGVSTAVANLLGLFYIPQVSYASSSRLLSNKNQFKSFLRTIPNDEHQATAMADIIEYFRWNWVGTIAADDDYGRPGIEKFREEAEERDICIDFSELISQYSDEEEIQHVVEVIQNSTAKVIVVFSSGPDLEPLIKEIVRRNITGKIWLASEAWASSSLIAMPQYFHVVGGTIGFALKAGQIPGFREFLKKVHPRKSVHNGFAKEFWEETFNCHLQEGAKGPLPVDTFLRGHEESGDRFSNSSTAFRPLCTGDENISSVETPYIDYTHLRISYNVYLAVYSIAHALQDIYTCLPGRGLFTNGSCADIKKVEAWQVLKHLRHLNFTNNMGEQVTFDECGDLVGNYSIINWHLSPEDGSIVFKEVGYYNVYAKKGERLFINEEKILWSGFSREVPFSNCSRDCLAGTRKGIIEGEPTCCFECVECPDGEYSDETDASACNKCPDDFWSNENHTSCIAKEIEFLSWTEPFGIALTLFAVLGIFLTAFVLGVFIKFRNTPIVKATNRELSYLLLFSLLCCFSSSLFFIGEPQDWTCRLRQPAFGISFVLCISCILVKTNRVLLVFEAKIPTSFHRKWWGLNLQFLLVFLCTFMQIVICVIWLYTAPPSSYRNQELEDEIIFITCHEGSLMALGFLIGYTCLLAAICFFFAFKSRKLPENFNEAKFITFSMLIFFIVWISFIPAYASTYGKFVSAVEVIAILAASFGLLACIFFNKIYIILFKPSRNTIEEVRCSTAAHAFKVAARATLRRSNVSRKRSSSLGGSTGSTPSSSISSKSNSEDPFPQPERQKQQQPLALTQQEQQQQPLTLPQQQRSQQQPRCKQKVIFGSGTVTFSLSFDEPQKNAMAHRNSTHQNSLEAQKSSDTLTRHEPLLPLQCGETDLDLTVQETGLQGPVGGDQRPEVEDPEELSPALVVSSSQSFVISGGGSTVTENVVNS
Assay: In-vitro assay of calcimimetics through modulation of calcium sensing receptor (CaSR): increase in intracellular calcium, FLIPR
Details: HEK293 cells expressing hCaSR; intracellular calcium (Fluo4NW, FLIPR); 0.3 mM CaCl2; 8-point assay; read-out: EC50 in range
pEC50: −log10 of the molar value. Where a name gives a salt, the structure may show the parent alone.
measured metric: pEC50

In [3]: df
Out[3]:
                                   compound                               test_target  measured_metric        result
0  COc1cc([C@@H](C)NCC2CN(C3CCCC3)C(=O)CO2)ccc1F (some centres unmarked) [Example 96, hydrochloride]  hCaSR (Calcium sensing receptor) in stably transfected HEK293 cells (Homo sapiens)            pEC50  6.70 to 7.30
1  COc1cccc([C@@H](C)NCC2COCCN2c2cccc(F)c2)c1 (some centres unmarked) [compound 15]  hCaSR (Calcium sensing receptor) in stably transfected HEK293 cells (Homo sapiens)            pEC50  7.30 to 7.70
2  COc1cc([C@@H](C)NCC2CN(Cc3cc(F)ccc3F)C(=O)CO2)ccc1F (single isomer, unassigned) [Example 160a, hydrochloride]  hCaSR (Calcium sensing receptor) in stably transfected HEK293 cells (Homo sapiens)            pEC50  7.30 to 7.70
3  COc1cccc(N2CCOC(CN[C@H](C)c3cccc4ccccc34)C2)c1 (single isomer, unassigned) [25b]  hCaSR (Calcium sensing receptor) in stably transfected HEK293 cells (Homo sapiens)            pEC50  7.30 to 7.70
4  Cc1ccc(N2CCOC(CN[C@H](C)c3cccc4ccccc34)C2)cc1 (single isomer, unassigned) [27a]  hCaSR (Calcium sensing receptor) in stably transfected HEK293 cells (Homo sapiens)            pEC50  6.70 to 7.30

Prompt: # query: pEC50 | item COc1cccc([C@@H](C)NCC2CN(c3ccccc3)CCO2)c1 (some centres unmarked) [compound 32] | system: hCaSR (Calcium sensing receptor) in stably transfected HEK293 cells (Homo sapiens)
Completion: 6.70 to 7.30

Prompt: API: value(readout= pEC50, system= hCaSR (Calcium sensing receptor) in stably transfected HEK293 cells (Homo sapiens), query= C[C@@H](NCC1CN(CCc2ccc(F)cc2)C(=O)CO1)c1cccc2ccccc12 (single isomer, unassigned) [Example 98a, hydrochloride] )
Completion: > 7.70

Prompt: Value wanted: pEC50 (hCaSR (Calcium sensing receptor) in stably transfected HEK293 cells (Homo sapiens)) of entry COc1cccc([C@@H](C)NCC2CN(c3cccc(C)c3)CCO2)c1 (some centres unmarked) [Example 134, hydrochloride]
Completion: > 7.70

Prompt: Return pEC50 measured with hCaSR (Calcium sensing receptor) in stably transfected HEK293 cells (Homo sapiens) given this compound: C[C@@H](NCC1CN(Cc2cccc(C(F)(F)F)c2)C(=O)CO1)c1cccc2ccccc12 (single isomer, unassigned) [Example 70a, hydrochloride]
Completion: > 7.70

Prompt: What is its pEC50 for hCaSR (Calcium sensing receptor) in stably transfected HEK293 cells (Homo sapiens)? Entry: COc1ccc(N2CC(CN[C@H](C)c3cccc4ccccc34)OCC2=O)cc1F (some centres unmarked) [compound 61, hydrochloride]
Completion: > 7.70

Prompt: // fetch hCaSR (Calcium sensing receptor) in stably transfected HEK293 cells (Homo sapiens) pEC50 for C[C@@H](NCC1CN(c2ccc(C(=O)O)cc2)CCO1)c1cccc2ccccc12 (some centres unmarked) [Example 147, hydrochloride]
Completion: 6.70 to 7.30
